Data export: pIC50 values recorded with human Mnk1 (Homo sapiens (Human), UniProt Q9BUB5).
Sequence (Q9BUB5 other isoform, or with tags, fused parts or gaps): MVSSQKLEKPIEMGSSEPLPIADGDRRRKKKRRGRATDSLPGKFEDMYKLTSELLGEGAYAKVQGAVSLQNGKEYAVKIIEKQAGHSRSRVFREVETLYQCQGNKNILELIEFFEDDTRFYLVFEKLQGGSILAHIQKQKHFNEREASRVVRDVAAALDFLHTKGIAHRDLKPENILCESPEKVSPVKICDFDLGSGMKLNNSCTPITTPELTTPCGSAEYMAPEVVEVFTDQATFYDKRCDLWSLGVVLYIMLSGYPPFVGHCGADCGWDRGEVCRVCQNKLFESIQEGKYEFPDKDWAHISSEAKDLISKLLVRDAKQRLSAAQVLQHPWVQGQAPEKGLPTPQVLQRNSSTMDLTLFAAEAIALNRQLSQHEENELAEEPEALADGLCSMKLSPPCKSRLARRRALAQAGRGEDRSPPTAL
pIC50: −log10 of the molar value.
quantity: pIC50

molecule	experimentalSystem	pIC50
Fc1ccc(Nc2ncnc3sc4c(c23)CCNC4)c(OC2CCOCC2)c1 [Example 41]	human Mnk1 (Homo sapiens (Human), UniProt Q9BUB5)	6.68

P. CCOc1cc(C(N)=O)ccc1Nc1ncnc2sc(C(N)=O)c(C)c12 [Example 2]
Q. Cc1c(C(=O)NCCN2CCOCC2)sc2ncnc(Nc3ccc(F)cc3OC3CCOCC3)c12 [Example 10]
Query block: // returns P or Q , whichever has the lower pIC50 Label of pick, please.
Result block: Q
(Q: 6.68, P: 6.92)

---

Data export: IC50 values recorded with human Mnk2a (Homo sapiens (Human), UniProt Q9HBH9).
Sequence (Q9HBH9 whole entry): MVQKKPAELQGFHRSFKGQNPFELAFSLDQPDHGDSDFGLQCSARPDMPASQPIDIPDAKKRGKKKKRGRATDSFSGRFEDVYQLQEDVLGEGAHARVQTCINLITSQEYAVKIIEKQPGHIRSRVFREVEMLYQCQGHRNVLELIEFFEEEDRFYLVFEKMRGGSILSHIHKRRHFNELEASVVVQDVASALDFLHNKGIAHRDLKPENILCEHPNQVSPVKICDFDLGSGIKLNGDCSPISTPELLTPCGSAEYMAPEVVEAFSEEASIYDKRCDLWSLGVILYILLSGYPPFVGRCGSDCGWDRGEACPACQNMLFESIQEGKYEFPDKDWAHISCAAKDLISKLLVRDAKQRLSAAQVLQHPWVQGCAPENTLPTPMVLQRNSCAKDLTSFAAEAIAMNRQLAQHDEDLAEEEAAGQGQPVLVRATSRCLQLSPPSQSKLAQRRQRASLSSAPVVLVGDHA
quantity: IC50 (nM)

smiles	measurementUnit	IC50
Cc1c(C(=O)NCCCN(C)C)sc2ncnc(Nc3ccc(F)cc3OC3CCOCC3)c12	nM	27
Fc1ccc(Nc2ncnc3sc4c(c23)CCNC4)c(OC2CCOCC2)c1	nM	110

a. CCOc1cc(C(N)=O)ccc1Nc1ncnc2sc(C(N)=O)c(C)c12
b. Cc1c(C(N)=O)sc2ncnc(Nc3ccc(F)cc3OC3CCN(Cc4ncon4)CC3)c12
Query block: Between a and b , whose measured IC50 reads higher? Label of pick, please.
Result block: b
